- TARGET OR TEST SYSTEM: human α1H T-type channels (Homo sapiens, UniProt O95180)
- Construct: expressed in transfected cells; host or cells: HEK 293
- Sequence (O95180 whole entry): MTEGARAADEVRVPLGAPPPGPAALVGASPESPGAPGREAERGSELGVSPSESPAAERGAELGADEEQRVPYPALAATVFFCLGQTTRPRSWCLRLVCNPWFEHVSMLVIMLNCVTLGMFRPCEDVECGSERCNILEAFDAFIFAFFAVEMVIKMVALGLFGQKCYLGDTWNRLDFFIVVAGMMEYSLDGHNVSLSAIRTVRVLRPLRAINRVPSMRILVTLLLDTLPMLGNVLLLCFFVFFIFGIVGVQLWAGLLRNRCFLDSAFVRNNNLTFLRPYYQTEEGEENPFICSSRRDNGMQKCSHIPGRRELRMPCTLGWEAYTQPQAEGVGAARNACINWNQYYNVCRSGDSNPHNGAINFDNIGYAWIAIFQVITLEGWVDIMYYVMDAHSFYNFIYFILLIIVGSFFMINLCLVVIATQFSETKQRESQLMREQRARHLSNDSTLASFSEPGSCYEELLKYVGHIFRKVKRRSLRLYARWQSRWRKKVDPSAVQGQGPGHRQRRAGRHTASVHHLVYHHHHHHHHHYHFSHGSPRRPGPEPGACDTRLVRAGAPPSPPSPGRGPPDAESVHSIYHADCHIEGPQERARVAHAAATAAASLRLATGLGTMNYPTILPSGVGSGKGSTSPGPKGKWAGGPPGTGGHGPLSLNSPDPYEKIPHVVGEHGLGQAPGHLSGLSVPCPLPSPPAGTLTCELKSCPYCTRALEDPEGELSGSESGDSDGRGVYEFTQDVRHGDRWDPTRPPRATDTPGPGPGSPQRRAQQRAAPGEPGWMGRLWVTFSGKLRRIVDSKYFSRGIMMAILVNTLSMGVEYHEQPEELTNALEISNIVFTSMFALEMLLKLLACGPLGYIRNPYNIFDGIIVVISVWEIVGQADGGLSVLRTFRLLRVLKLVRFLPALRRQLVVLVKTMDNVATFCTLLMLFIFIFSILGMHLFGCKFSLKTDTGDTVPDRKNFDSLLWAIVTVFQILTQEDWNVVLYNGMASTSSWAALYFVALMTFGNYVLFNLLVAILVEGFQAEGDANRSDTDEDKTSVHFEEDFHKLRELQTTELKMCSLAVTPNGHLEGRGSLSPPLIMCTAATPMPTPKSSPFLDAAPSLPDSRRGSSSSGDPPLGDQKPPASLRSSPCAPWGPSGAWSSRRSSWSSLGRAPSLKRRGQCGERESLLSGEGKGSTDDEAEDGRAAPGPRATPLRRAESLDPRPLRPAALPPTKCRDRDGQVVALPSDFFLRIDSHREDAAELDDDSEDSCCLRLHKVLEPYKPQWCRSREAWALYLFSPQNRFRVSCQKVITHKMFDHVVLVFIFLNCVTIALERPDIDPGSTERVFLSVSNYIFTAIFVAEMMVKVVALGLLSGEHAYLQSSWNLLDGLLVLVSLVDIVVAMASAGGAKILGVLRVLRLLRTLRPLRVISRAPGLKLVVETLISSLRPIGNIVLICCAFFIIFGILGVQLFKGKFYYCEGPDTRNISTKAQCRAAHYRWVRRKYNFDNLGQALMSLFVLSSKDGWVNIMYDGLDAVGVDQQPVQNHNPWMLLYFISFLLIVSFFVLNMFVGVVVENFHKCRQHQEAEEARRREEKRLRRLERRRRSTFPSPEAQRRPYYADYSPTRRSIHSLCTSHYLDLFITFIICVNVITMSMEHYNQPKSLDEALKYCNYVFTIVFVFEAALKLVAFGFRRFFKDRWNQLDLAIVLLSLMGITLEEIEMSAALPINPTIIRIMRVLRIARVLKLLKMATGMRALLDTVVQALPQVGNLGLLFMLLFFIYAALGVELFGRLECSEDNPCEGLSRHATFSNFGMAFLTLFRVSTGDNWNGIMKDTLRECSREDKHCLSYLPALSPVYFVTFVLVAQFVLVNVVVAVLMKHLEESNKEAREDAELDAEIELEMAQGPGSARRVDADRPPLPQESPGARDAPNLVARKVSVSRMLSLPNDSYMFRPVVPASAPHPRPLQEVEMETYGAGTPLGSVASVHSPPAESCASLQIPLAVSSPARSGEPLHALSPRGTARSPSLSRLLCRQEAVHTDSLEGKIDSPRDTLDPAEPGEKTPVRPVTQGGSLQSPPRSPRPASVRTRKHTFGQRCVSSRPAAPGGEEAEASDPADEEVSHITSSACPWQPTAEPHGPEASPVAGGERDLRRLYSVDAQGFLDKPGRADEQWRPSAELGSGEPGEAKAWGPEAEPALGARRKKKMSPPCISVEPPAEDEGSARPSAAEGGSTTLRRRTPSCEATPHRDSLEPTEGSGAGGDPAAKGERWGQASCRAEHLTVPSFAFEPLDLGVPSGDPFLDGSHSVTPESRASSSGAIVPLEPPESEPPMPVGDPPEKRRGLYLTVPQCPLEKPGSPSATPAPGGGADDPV
- TEST SUMMARY: T-type calcium channel block, whole cell patch clamp in HEK cells (α1H)
- Assay type: cell-based
- DETAILS: HEK cells, patch clamp, mainly non-inactivated protocol; values above 10 μM shown as 10 μM; read-out: T-type Calcium Channel Block α1H IC50
pIC50: −log10 of the molar value.
READOUT TYPE: pIC50

Look up pIC50: C[C@H]1CC[C@H](NCC(=O)N2CCC(CNC(=O)c3cc(C(F)(F)F)cc(C(F)(F)F)c3)CC2)CC1
6.28

Requested field: pIC50. Item: O=C(NCC1CCN(CC(=O)N2CCC[C@@H]2C(F)(F)F)CC1)c1cccc(F)c1
5.04

[P] CCC(C)(C)NC(=O)CN1CCC(CNC(=O)c2cc(F)cc(C(F)(F)F)c2)CC1
[Q] CC(C)(C)NC(=O)CN1CCC(CNC(=O)c2cc(Cl)cc(C(F)(F)F)c2)CC1
Of P and Q , whose reported pIC50 is the larger number? Selection: enter the item's label.
P
(P: 7.22, Q: 6.96)

----------
- TARGET OR TEST SYSTEM: human α1G T-type channels (Homo sapiens)
- Construct: expressed in transfected cells; host or cells: HEK 293
- Sequence (O43497 whole entry): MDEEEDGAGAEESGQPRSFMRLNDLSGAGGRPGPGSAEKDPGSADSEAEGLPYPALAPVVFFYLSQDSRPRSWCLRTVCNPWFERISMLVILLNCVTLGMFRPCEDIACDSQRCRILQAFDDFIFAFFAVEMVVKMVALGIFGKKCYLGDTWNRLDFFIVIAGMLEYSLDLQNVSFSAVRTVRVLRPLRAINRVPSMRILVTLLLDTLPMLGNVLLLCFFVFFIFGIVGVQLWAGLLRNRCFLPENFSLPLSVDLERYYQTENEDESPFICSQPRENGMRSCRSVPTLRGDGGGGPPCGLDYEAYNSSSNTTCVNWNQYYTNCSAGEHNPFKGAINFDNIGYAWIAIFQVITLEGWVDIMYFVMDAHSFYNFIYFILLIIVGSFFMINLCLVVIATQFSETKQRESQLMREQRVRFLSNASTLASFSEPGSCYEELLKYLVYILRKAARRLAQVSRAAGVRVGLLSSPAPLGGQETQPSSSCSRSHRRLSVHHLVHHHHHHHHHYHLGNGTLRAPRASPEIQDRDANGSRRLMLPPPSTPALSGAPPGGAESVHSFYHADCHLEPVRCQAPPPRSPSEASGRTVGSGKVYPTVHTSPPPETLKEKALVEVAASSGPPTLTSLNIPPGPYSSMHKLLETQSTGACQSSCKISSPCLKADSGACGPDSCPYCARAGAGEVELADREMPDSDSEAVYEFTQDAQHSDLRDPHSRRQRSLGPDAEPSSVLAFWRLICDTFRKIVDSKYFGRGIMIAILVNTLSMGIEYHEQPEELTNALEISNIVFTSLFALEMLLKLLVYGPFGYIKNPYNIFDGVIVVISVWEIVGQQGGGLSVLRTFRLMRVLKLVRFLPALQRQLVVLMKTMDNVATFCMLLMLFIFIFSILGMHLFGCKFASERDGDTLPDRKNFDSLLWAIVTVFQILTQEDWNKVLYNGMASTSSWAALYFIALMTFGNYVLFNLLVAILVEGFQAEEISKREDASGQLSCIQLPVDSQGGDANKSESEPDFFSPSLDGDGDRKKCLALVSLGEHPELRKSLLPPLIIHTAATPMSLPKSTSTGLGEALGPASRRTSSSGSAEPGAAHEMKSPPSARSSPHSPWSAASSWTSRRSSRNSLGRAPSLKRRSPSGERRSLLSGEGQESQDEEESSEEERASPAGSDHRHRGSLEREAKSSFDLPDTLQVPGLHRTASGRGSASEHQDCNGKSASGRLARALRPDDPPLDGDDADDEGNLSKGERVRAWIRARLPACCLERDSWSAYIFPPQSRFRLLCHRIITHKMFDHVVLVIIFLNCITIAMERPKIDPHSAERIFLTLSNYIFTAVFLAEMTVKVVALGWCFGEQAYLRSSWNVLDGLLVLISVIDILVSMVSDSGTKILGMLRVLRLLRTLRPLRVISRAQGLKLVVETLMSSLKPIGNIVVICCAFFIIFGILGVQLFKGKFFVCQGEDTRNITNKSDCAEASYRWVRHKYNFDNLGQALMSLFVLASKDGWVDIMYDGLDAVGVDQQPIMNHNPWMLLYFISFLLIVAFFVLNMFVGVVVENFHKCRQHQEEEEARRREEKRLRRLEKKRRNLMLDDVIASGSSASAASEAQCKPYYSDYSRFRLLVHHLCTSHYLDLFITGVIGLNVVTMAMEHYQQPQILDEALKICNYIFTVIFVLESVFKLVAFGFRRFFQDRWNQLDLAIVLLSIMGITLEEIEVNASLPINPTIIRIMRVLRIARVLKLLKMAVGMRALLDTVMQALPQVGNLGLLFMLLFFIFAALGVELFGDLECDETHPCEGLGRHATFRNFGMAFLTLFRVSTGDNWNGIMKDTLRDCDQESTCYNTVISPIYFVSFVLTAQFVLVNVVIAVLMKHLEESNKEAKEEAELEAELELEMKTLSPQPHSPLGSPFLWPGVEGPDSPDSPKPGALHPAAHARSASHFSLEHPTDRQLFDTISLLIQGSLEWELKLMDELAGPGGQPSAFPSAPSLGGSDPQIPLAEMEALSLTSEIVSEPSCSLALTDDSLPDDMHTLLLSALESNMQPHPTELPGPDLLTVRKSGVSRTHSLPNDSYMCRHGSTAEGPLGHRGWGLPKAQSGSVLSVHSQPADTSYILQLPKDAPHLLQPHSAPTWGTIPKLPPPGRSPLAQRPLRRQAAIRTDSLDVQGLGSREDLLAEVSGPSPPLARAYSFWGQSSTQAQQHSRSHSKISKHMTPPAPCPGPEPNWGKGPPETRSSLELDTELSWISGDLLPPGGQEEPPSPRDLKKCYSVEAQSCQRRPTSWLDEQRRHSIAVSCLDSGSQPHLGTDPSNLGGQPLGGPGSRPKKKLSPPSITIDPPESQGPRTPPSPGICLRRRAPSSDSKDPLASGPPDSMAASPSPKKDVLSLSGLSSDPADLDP
- TEST SUMMARY: T-type calcium channel block, whole cell patch clamp in HEK cells (α1G)
- Format: cell-based
- DETAILS: HEK cells, patch clamp, mainly non-inactivated protocol; values above 10 μM shown as 10 μM, below 0.30 μM shown as 0.30 μM; read-out: T-type Calcium Channel Block α1G IC50
- Procedure: T-type calcium channel blocking activity was assayed in human embryonic kidney cells, HEK 293, stably transfected with the T-type calcium channel subunits. […] Standard patch-clamp techniques were employed to identify blockers of T-type currents. […] Data were analyzed using Clampfit (Axon Instruments) and SigmaPlot 4.0 (Jandel Scientific). […]
READOUT TYPE: IC50

Name the reported IC50 value associated with the compound O=C(CCC(F)(F)F)NCCN1CCC(CNC(=O)c2cccc(OC(F)(F)F)c2)CC1 [Compound 311]
2650 nM

***
State the recorded IC50 for this entry: CN(CCN1CCC(CNC(=O)c2cc(F)cc(C(F)(F)F)c2)CC1)C(=O)NC(C)(C)C [Compound 523]
5740 nM

Endpoint output: IC50 of CC1(NC(=O)CN2CCC(CNC(=O)c3cccc(Br)c3)CC2)CCC1 [Compound 480] . Value?
< 300 nM

Request the reported IC50 associated with O=C(NC1CCCCC1)NC1(CN2CCC(CNC(=O)c3cc(C(F)(F)F)cc(C(F)(F)F)c3)CC2)CCCC1 [Compound 14]
< 300 nM

Param item = O=C(NCC1CCN(CCNC(=O)C2CCCC2)CC1)c1cccc(C(F)(F)F)c1 [Compound 398] ; retrieve measured IC50.
3530 nM

Entry CC(C)(C)NC(=O)CN1CCC(CNC(=O)c2cccc(Cl)c2)CC1 [Compound 364] : reported IC50 = ?
< 300 nM

What does the record list as IC50 for O=C(NCC1CCN(CCNC(=O)C2CCCC2)CC1)c1cc(Br)cc(C(F)(F)F)c1 [Compound 407] ?
< 300 nM
